Tested on: 966289-007-R4-J1-PDC complex spheroid viability;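 note: spheroids exposed to agents for one week before readout; percent viability relative to DMSO vehicle control wells as 100%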
protocolDetails: Anticancer human tumor 966289-007-R4-J1-PDC patient-derived pancreatic adenocarcinoma cell line growth inhibition [RAS]
cond: second compound 0.000949 µM; first compound 0.01 µM; active compounds read low
recordedEndpoint: viability, T/C (%)
Please respond with the number in % and leave the unit unwritten.

For O=C(c1ccc(F)c(F)c1Nc1ccc(I)cc1F)N1CC(O)([C@@H]2CCCCN2)C1 + CCn1c(-c2cccnc2C(C)OC)c2c3cc(ccc31)N1CCOC(CC(NC(=O)C(C(C)C)N(C)C(=O)C3(F)CCN(C(=O)C#CC(C)(C)N(C)C)CC3)C(=O)N3CCCC(N3)C(=O)OCC(C)(C)C2)C1 the molecule record lists viability, T/C as 94.9

For Nc1ccn(C2OC(CO)C(O)C2(F)F)c(=O)n1 (centres undefined) + CCn1c(-c2cccnc2C(C)OC)c2c3cc(ccc31)N1CCOC(CC(NC(=O)C(C(C)C)N(C)C(=O)C3(F)CCN(C(=O)C#CC(C)(C)N(C)C)CC3)C(=O)N3CCCC(N3)C(=O)OCC(C)(C)C2)C1 the molecule record lists viability, T/C as 18.9

For C=CC(=O)Nc1cc(Nc2nccc(-c3cn(C)c4ccccc34)n2)c(OC)cc1N(C)CCN(C)C + CCn1c(-c2cccnc2C(C)OC)c2c3cc(ccc31)N1CCOC(CC(NC(=O)C(C(C)C)N(C)C(=O)C3(F)CCN(C(=O)C#CC(C)(C)N(C)C)CC3)C(=O)N3CCCC(N3)C(=O)OCC(C)(C)C2)C1 the molecule record lists viability, T/C as 101

For O=C(c1ccc(F)c(F)c1Nc1ccc(I)cc1F)N1CC(O)([C@@H]2CCCCN2)C1 + CCn1c(-c2cc(N3CCN(C)CC3)cnc2C(C)OC)c2c3cc(ccc31)-c1csc(n1)CC(NC(=O)C1CC1C)C(=O)N1CCCC(N1)C(=O)OCC(C)(C)C2 the molecule record lists viability, T/C as 89.9

Where do these numbers come from? They come from PubChem BioAssay AID2060897.
